Data origin, for the record: patent US3939143A

Test system: Escherichia coli K-12 ML 1410
assayComment: Minimum inhibitory concentration, serial dilution on nutrient agar
Format: cell-based
details: K12ML1410, 18 h, read-out: Minimum Inhibitory Concentration
assayEndpoint: MIC (µg/mL)
Just the number please, in µg/mL, no unit attached.

For the molecule `NC[C@H]1O[C@H](O[C@H]2[C@H](O)[C@@H](O[C@H]3O[C@H](CO)[C@@H](O)[C@H](N)[C@H]3O)[C@H](N)C[C@@H]2N)[C@H](O)[C@@H](O)[C@@H]1O` , what MIC is on record?
1.56

MIC lookup needed for NC[C@H]1O[C@H](O[C@H]2[C@H](O)[C@@H](O[C@H]3O[C@H](CO)[C@@H](O)[C@H](N)[C@H]3O)[C@H](N)C[C@@H]2N)[C@H](N)[C@@H](O)[C@@H]1O [KMB, kanamycin B, reference compound] , thanks.
0.78

Recorded MIC for NCC(O)C(=O)N[C@@H]1C[C@H](N)[C@@H](O[C@H]2O[C@H](CN)[C@@H](O)[C@H](O)[C@H]2O)[C@H](O)[C@H]1O[C@H]1O[C@H](CO)[C@@H](O)[C@H](N)[C@H]1O (mixture of isomers) , please?
1.56

So what does the record say about MIC for NC[C@@H]1CC[C@@H](N)[C@@H](O[C@H]2[C@H](O)[C@@H](O[C@H]3O[C@H](CO)[C@@H](O)[C@H](N)[C@H]3O)[C@H](N)C[C@@H]2N)O1 [DKB, 3',4'-dideoxykanamycin B, reference compound] ?
1.56

====

Tested on: Pseudomonas aeruginosa A3
assayComment: Minimum inhibitory concentration, serial dilution on nutrient agar
Format: cell-based
details: 37°C, 18 hours
assayEndpoint: MIC
A bare number is not enough; add the unit after it.

Returns the measured MIC for the input compound. Input: NCC(O)C(=O)N[C@@H]1C[C@H](N)[C@@H](O[C@H]2O[C@H](CN)CC[C@H]2N)[C@H](O)[C@H]1O[C@H]1O[C@H](CO)[C@@H](O)[C@H](N)[C@H]1O (mixture of isomers) [1-IS-DKB, 1-N-DL-isoseryl-3',4'-dideoxykanamycin B]
3.13 µg/mL

Returns the measured MIC for the input compound. Input: NC[C@H]1O[C@H](O[C@H]2[C@H](O)[C@@H](O[C@H]3O[C@H](CO)[C@@H](O)[C@H](N)[C@H]3O)[C@H](N)C[C@@H]2N)[C@H](O)[C@@H](O)[C@@H]1O [KM, kanamycin]
50 µg/mL

Return reported MIC; argument: NC[C@@H]1CC[C@@H](N)[C@@H](O[C@H]2[C@H](O)[C@@H](O[C@H]3O[C@H](CO)[C@@H](O)[C@H](N)[C@H]3O)[C@H](N)C[C@@H]2N)O1 [DKB, 3',4'-dideoxykanamycin B, reference compound]
1.56 µg/mL

# input compound: NC[C@H]1O[C@H](O[C@H]2[C@H](O)[C@@H](O[C@H]3O[C@H](CO)[C@@H](O)[C@H](N)[C@H]3O)[C@H](N)C[C@@H]2N)[C@H](N)[C@@H](O)[C@@H]1O [KMB, kanamycin B, reference compound] ; wanted: its MIC
50 µg/mL

Consider the compound NCC(O)C(=O)N[C@@H]1C[C@H](N)[C@@H](O[C@H]2O[C@H](CN)[C@@H](O)[C@H](O)[C@H]2O)[C@H](O)[C@H]1O[C@H]1O[C@H](CO)[C@@H](O)[C@H](N)[C@H]1O (mixture of isomers) [1-IS-KM, 1-N-DL-isoserylkanamycin] and give its measured MIC.
3.13 µg/mL

Data request, read-out MIC, for NCC(O)C(=O)N[C@@H]1C[C@H](N)[C@@H](O[C@H]2O[C@H](CN)[C@@H](O)[C@H](O)[C@H]2N)[C@H](O)[C@H]1O[C@H]1O[C@H](CO)[C@@H](O)[C@H](N)[C@H]1O (mixture of isomers) [1-IS-KMB, 1-N-DL-isoserylkanamycin B]
6.25 µg/mL

====

What MIC was measured for each of the following?
Tested on: Pseudomonas aeruginosa TI-13
assayComment: Minimum inhibitory concentration, serial dilution on nutrient agar
Format: cell-based
details: TI13, 37°C, 18 hours
Numeric answer only, unit µg/mL assumed.

Give MIC (Pseudomonas aeruginosa TI-13) of the following molecule: NCC(O)C(=O)N[C@@H]1C[C@H](N)[C@@H](O[C@H]2O[C@H](CN)CC[C@H]2N)[C@H](O)[C@H]1O[C@H]1O[C@H](CO)[C@@H](O)[C@H](N)[C@H]1O (mixture of isomers) [1-IS-DKB, 1-N-DL-isoseryl-3',4'-dideoxykanamycin B]
3.13

Requested read-out MIC, target or system Pseudomonas aeruginosa TI-13, entry NCC(O)C(=O)N[C@@H]1C[C@H](N)[C@@H](O[C@H]2O[C@H](CN)[C@@H](O)[C@H](O)[C@H]2O)[C@H](O)[C@H]1O[C@H]1O[C@H](CO)[C@@H](O)[C@H](N)[C@H]1O (mixture of isomers) [1-IS-KM, 1-N-DL-isoserylkanamycin]
3.13

// map NCC(O)C(=O)N[C@@H]1C[C@H](N)[C@@H](O[C@H]2O[C@H](CN)[C@@H](O)[C@H](O)[C@H]2N)[C@H](O)[C@H]1O[C@H]1O[C@H](CO)[C@@H](O)[C@H](N)[C@H]1O (mixture of isomers) [1-IS-KMB, 1-N-DL-isoserylkanamycin B] to recorded MIC (system: Pseudomonas aeruginosa TI-13)
6.25

Given the entry NC[C@@H]1CC[C@@H](N)[C@@H](O[C@H]2[C@H](O)[C@@H](O[C@H]3O[C@H](CO)[C@@H](O)[C@H](N)[C@H]3O)[C@H](N)C[C@@H]2N)O1 [DKB, 3',4'-dideoxykanamycin B, reference compound] , what MIC was observed with Pseudomonas aeruginosa TI-13?
1.56

Please state recorded MIC (tested on Pseudomonas aeruginosa TI-13) of NC[C@H]1O[C@H](O[C@H]2[C@H](O)[C@@H](O[C@H]3O[C@H](CO)[C@@H](O)[C@H](N)[C@H]3O)[C@H](N)C[C@@H]2N)[C@H](N)[C@@H](O)[C@@H]1O [KMB, kanamycin B, reference compound]
100

====

Assignment: determine reported LD50 for the given compounds.
assayComment: acute toxicity upon intravenous injection in mice
Type: in vivo
details: mouse, in vivo; intravenous injection, mice

Look up LD50: NCC(O)C(=O)N[C@@H]1C[C@H](N)[C@@H](O[C@H]2O[C@H](CN)[C@@H](O)[C@H](O)[C@H]2N)[C@H](O)[C@H]1O[C@H]1O[C@H](CO)[C@@H](O)[C@H](N)[C@H]1O (mixture of isomers) [1-IS-KMB, 1-N-DL-isoserylkanamycin B]
> 100 mg/kg

For the compound NCC(O)C(=O)N[C@@H]1C[C@H](N)[C@@H](O[C@H]2O[C@H](CN)[C@@H](O)[C@H](O)[C@H]2O)[C@H](O)[C@H]1O[C@H]1O[C@H](CO)[C@@H](O)[C@H](N)[C@H]1O (mixture of isomers) [1-IS-KM, 1-N-DL-isoserylkanamycin] , what LD50 is on record?
> 200 mg/kg

Return reported LD50; argument: NCC(O)C(=O)N[C@@H]1C[C@H](N)[C@@H](O[C@H]2O[C@H](CN)CC[C@H]2N)[C@H](O)[C@H]1O[C@H]1O[C@H](CO)[C@@H](O)[C@H](N)[C@H]1O (mixture of isomers) [1-IS-DKB, 1-N-DL-isoseryl-3',4'-dideoxykanamycin B]
> 100 mg/kg

====

System: Pseudomonas aeruginosa GN315
assayComment: Minimum inhibitory concentration, serial dilution on nutrient agar
Format: cell-based
details: GN315, 37°C, 18 hours, read-out: Minimum Inhibitory Concentration
Answer each item with its documented MIC.

May I ask what MIC has been recorded for NCC(O)C(=O)N[C@@H]1C[C@H](N)[C@@H](O[C@H]2O[C@H](CN)[C@@H](O)[C@H](O)[C@H]2N)[C@H](O)[C@H]1O[C@H]1O[C@H](CO)[C@@H](O)[C@H](N)[C@H]1O (mixture of isomers) ?
50 µg/mL

Endpoint output: MIC of NCC(O)C(=O)N[C@@H]1C[C@H](N)[C@@H](O[C@H]2O[C@H](CN)CC[C@H]2N)[C@H](O)[C@H]1O[C@H]1O[C@H](CO)[C@@H](O)[C@H](N)[C@H]1O (mixture of isomers) . Value?
12.5 µg/mL

// MIC lookup, key: NCC(O)C(=O)N[C@@H]1C[C@H](N)[C@@H](O[C@H]2O[C@H](CN)[C@@H](O)[C@H](O)[C@H]2O)[C@H](O)[C@H]1O[C@H]1O[C@H](CO)[C@@H](O)[C@H](N)[C@H]1O (mixture of isomers)
> 100 µg/mL

Dear colleague, I am looking for the recorded MIC of the following molecule: NC[C@@H]1CC[C@@H](N)[C@@H](O[C@H]2[C@H](O)[C@@H](O[C@H]3O[C@H](CO)[C@@H](O)[C@H](N)[C@H]3O)[C@H](N)C[C@@H]2N)O1 [DKB, 3',4'-dideoxykanamycin B, reference compound]
> 100 µg/mL
